System: TK-10
protocol-text: NCI tumour cell line growth inhibition, 48 h
Activity calls are given as the source filed them. Rule as the data show it: active = GI50 up to about 1.1 µM and inactive = higher.
Outcomes you can answer with include only these: yes for active, no for inactive

Worked cases, answers included:
compound=COc1ccc(-c2oc3c(OC)c(OC)c(OC)c(O)c3c(=O)c2OC)cc1O assayed_target=TK-10 label=no
compound=O=c1c2c(c1=O)C1(SCCCS1)c1cc(Cl)ccc1O2 assayed_target=TK-10 label=no
compound=O=C(c1cccs1)N(C(=S)OCCOc1ccccc1)c1ccccc1 assayed_target=TK-10 label=no
compound="C=C1C[C@@H](O)[C@@H](Br)C(C)(C)[C@]12CCC(C)(Cl)C(Br)C2 (stereo not given in full)" assayed_target=TK-10 label=no
compound="OCCNC1c2cc(Cl)ccc2-c2c(Cl)cc(Cl)cc21 (stereo not given)" assayed_target=TK-10 label=no

Now let's try a different one.
Query :: Which outcome did this test record for the compound CN1C/C(=C\c2cccs2)C(O)/C(=C/c2cccs2)C1 (stereo not given) ?
Result :: no

---

Test system: RPMI-8226
protocol-text: NCI tumour cell line growth inhibition, 48 h
The source made the active and inactive calls. Rule as the data show it: active = GI50 up to about 1.1 µM and inactive = higher.
quantity-measured: GI50

Example entries begin here.
compound=COc1cc(Br)cc2cc(-c3cn4ccsc4n3)c(=O)oc12 recorded_result="33.2 µM (inactive)"
compound="Nc1ncnc2c1ncn2C1C=CC(CP(=O)(O)O)C1 (stereo unspecified)" recorded_result="> 100 µM (inactive)"
compound=CO/C=C(/C(=O)OC)c1ccccc1[C@H]1C[C@@H]1c1ccccc1 recorded_result="12.6 µM (inactive)"
compound="COC1(OC)N=C(N)C2(C#N)/C(=N/N(C)C)CC(C)C12C#N (stereo unspecified)" recorded_result="> 10 µM (inactive)"
compound="CCOC(=O)c1[nH]c2cccc3c2c1CC(Br)C3=O (stereo unspecified)" recorded_result="5.02 µM (inactive)"

Query :: Recorded GI50 for CN(C)c1ccc(/C=C2\CNC/C(=C\c3ccc(N(C)C)cc3)C2=O)cc1 with RPMI-8226, please?
Result :: 54.6 µM (inactive)

---

System: HL-60
protocol-text: NCI tumour cell line growth inhibition, 48 h
Active and inactive are the calls of the source. Rule as the data show it: active = GI50 up to about 1.1 µM and inactive = higher.
Respond using exactly one of the listed classes: yes for active, no for inactive

Examples from the recorded data:
molecule=CCCCC(=O)c1c(O)nc2sccn2c1=O label=no
molecule="C=C(COC(C)=O)CC(OC(C)=O)c1ccccc1 (stereo not given)" label=no
molecule="CCOC(=O)c1[nH]c2cccc3c2c1CC(Br)C3=O (stereo not given)" label=no
molecule=COC(=O)n1c(=O)n(-c2ccccc2)c(=O)n1C(=O)Nc1ccccc1 label=no
molecule=Fc1cc(C2=C[C@H](c3ccc4c(c3)OCO4)NC(=S)N2)c(Cl)cc1Cl label=yes

Query :: Can you look up the reported call for Cn1c(=O)oc2cc(C(=O)CSC(=S)N3CCCCCC3)ccc21 for me?
Result :: no

Query :: Now try O=C(OCN1C(=O)C2C3C=CC(C2C1=O)C1C2C(=O)N(COC(=O)C4CCCN4)C(=O)C2C31)C1CCCN1 (stereo not given) .
Result :: no

Query :: Next entry: OCC(O)COCn1cc(Cn2ncc3c(O)ncnc32)nn1 (stereo not given)
Result :: no

Query :: Also, COc1ccc(NC(=O)CSc2nnc(-c3ccc(/N=C\c4ccc(Cl)cc4)cc3)o2)cc1 please.
Result :: no

Query :: Field entry: C[C@]1(S(=O)(=O)c2ccccc2)C[C@H]2N(Cc3ccccc3)[C@@H]1CCC21OCCO1
Result :: no

---

System: LXFL 529
protocol-text: NCI tumour cell line growth inhibition, 48 h
Activity calls are given as the source filed them. Cut-off read from the data, not from the text of the source: active = GI50 up to about 1.1 µM and inactive = higher.
quantity-measured: GI50

molecule=O=C(O)CNc1cc(-c2ccccc2)nc(NCC(=O)O)n1 quantity_measured=GI50 recorded_result="> 100 µM (inactive)"

Kindly give each listed record's GI50.
1. O=C(Nc1cccc(Cc2cccc(NC(=O)c3ccccc3)c2)c1)c1ccccc1
2. C=C(COC(C)=O)CC(OC(C)=O)c1ccccc1 (stereo not drawn)

Result ::
["28.7 µM (inactive)", "> 100 µM (inactive)"]

---

Exercise: for every item that follows, state its recorded GI50.
Test system: K562
protocol-text: NCI tumour cell line growth inhibition, 48 h
Calls of active or inactive are those of the source. Cut-off read from the data, not from the text of the source: active = GI50 up to about 1.1 µM and inactive = higher.

molecule="CSc1nc(Cl)c2c(n1)Sc1ncnn1C2O (stereo not given)" assayed_target=K562 quantity_measured=GI50 recorded_result="3.62 µM (inactive)"
molecule=O=C(CCC1C(=O)NC(=S)NC1=O)c1ccc2ccccc2c1 assayed_target=K562 quantity_measured=GI50 recorded_result="> 100 µM (inactive)"
molecule="CC(=O)N1C(c2[nH]c3ccccc3c2-c2ccccc2)CCN1c1ccccc1 (stereo not given)" assayed_target=K562 quantity_measured=GI50 recorded_result="9.18 µM (inactive)"
molecule="COc1cccc2c1C(=O)c1c(O)c3c(c(O)c1C2=O)CC(O)(C(C)=O)CC3OC1OC(COC(C)=O)C(OC(C)=O)C(OC(C)=O)C1OC(C)=O (stereo not given)" assayed_target=K562 quantity_measured=GI50 recorded_result="18.5 µM (inactive)"
molecule=O=C(/C=C/c1ccc(Cl)c(Cl)c1)c1ccccc1Cl assayed_target=K562 quantity_measured=GI50 recorded_result="7.16 µM (inactive)"
molecule="CC/C=N\\N1C(N)=C(C#N)C(C#N)(C#N)C1CC (stereo not given)" assayed_target=K562 quantity_measured=GI50 recorded_result="52.7 µM (inactive)"
molecule="CC1C(C#N)(C#N)C(C#N)=C(N)C1(C)[N+](=O)[O-] (stereo not given)" assayed_target=K562 quantity_measured=GI50 recorded_result="29.9 µM (inactive)"
molecule="C#C[C@]1(O)CC[C@H]2[C@@H]3CCC4=C/C(=N/OC(=O)c5cccc6c(=O)c7ccccc7[nH]c56)CCC4[C@H]3CC[C@@]21CC (stereo not given in full)" assayed_target=K562 quantity_measured=GI50 recorded_result="10.9 µM (inactive)"
molecule=O=C(COc1ccc2c(=O)cc(-c3ccccc3)oc2c1)N1CCN(c2ccccc2)CC1 assayed_target=K562 quantity_measured=GI50 recorded_result="18 µM (inactive)"

From here, focus on the item given below.
Query :: Find GI50 (K562) for the entry Cc1csc2nc3[nH]ncc3c(=O)n12
Result :: > 100 µM (inactive)

---

Test system: M19-MEL
protocol-text: NCI tumour cell line growth inhibition, 48 h
Activity calls are given as the source filed them. No stated cut-off is given here; in the data, active = GI50 up to about 1.1 µM and inactive = higher.
Would you kindly list GI50 for each of these compounds?

Worked examples follow.
compound=CN(C)C(=O)OCOC(=O)N(C)C quantity_measured=GI50 recorded_result="> 100 µM (inactive)"
compound=Cn1ccnc1CCc1ccc(Cl)c(Cl)c1 quantity_measured=GI50 recorded_result="> 100 µM (inactive)"
compound="CC1(C)OC2CC(=O)OCC23C1CC(=O)C1(C)C3CCC2(C)C(c3ccoc3)OC(=O)C3OC321 (stereo unspecified)" quantity_measured=GI50 recorded_result="> 125 µM (inactive)"
compound=CSc1snc2sc3c(Cl)nnnc3c12 quantity_measured=GI50 recorded_result="9.35 µM (inactive)"
compound="c1ccc2c(c1)SP1Sc3ccccc3P21 (stereo unspecified)" quantity_measured=GI50 recorded_result="> 100 µM (inactive)"

Okay, now this compound:
Query :: So what does the record say about GI50 for O=C1NC(=S)NC(=O)C1=Cc1ccc([N+](=O)[O-])o1 ?
Result :: 19.6 µM (inactive)

---

Provide the reported GI50 of each item.
Test system: U-251
protocol-text: NCI tumour cell line growth inhibition, 48 h
Activity calls are given as the source filed them. No stated cut-off is given here; in the data, active = GI50 up to about 1.1 µM and inactive = higher.

Below: 5 molecules and their reported GI50.
molecule="O=C1OCC(C(=O)c2cccc(O)c2)C1=O (stereo unspecified)" assayed_target=U-251 quantity_measured=GI50 recorded_result="> 100 µM (inactive)"
molecule=COc1ccc(/C=C/C(=O)CCN2CCN(CCC(=O)/C=C/c3ccc(OC)cc3)CC2)cc1 assayed_target=U-251 quantity_measured=GI50 recorded_result="12.1 µM (inactive)"
molecule=CCn1c2c(c3c(C(=O)OC)c(O)ccc31)C(=O)c1ccccc1C2=O assayed_target=U-251 quantity_measured=GI50 recorded_result="14.7 µM (inactive)"
molecule=CCOC(=O)C(=O)C(=O)NN(C)C1=NCCN1 assayed_target=U-251 quantity_measured=GI50 recorded_result="> 100 µM (inactive)"
molecule="N#Cc1c(-c2ccccc2)[nH]c(=O)n(C2OC(CO)C(O)C(O)C2O)c1=O (stereo unspecified)" assayed_target=U-251 quantity_measured=GI50 recorded_result="> 100 µM (inactive)"

Query :: Reported GI50, molecule O=[N+]([O-])c1ccc(/C=C/c2csnn2)cc1 : ____
Result :: > 100 µM (inactive)

---

Tested on: SK-MEL-28
protocol-text: NCI tumour cell line growth inhibition, 48 h
The source made the active and inactive calls. No stated cut-off is given here; in the data, active = GI50 up to about 1.1 µM and inactive = higher.
quantity-measured: GI50

compound=O=Nc1c(-c2c(O)[nH]c3ccccc23)[nH]c2ccccc12 quantity_measured=GI50 recorded_result="6.9 µM (inactive)"

Please report GI50 for every entry that follows.
1. Nc1nc(Cl)c(N)c(NCC2(CO)CC(OCc3ccccc3)C2)n1 (stereo not given)
2. C#CCSc1nc(-c2ccco2)n[nH]1
3. O=C(O)Cc1cc(O)c(CC(=O)O)cc1O
4. CON(C)C(=O)C(C)NC(=O)OC(C)(C)C (stereo not given)

Result ::
1: > 100 µM (inactive); 2: > 100 µM (inactive); 3: > 100 µM (inactive); 4: > 100 µM (inactive)

State the recorded GI50 for every item in the following list.
1. Cc1cccc(C(C)(C)C)c1NC(=O)C(=O)C(C(=O)/C=C\c1ccccc1)C1OC(=O)c2ccccc21 (stereo not given)
2. O=c1ccc2nc3cc(Br)ccc3sc-2c1
3. CC1(C)CC(N2CCN(C3CC(C)(C)NC(C)(C)C3)CC2)CC(C)(C)N1
4. CCCCCCCCCCCCCCCCOCC(COP(=O)([O-])OCC[n+]1ccc(N(C)C)cc1)OCC (stereo not given)
5. C=C(C)[C@@H]1CCC2=C[C@H](OC2=O)[C@@]2(C)C[C@@H]2C(=O)/C=C(/C)C(=O)[C@H]1OC(C)=O

Result ::
1: > 100 µM (inactive); 2: > 100 µM (inactive); 3: > 100 µM (inactive); 4: 17.6 µM (inactive); 5: 14.8 µM (inactive)
